The following compounds are listed with their measured IC50 values.
- Tested Target: DHS2^A11 (Arabidopsis thaliana, UniProt Q00218, A224T)
- Construct: without the predicted plastid transit peptide (amino acid residues; 49-525, 34-507, and 52-527, respectively)
- Sequence (Q00218 34-507 A224T): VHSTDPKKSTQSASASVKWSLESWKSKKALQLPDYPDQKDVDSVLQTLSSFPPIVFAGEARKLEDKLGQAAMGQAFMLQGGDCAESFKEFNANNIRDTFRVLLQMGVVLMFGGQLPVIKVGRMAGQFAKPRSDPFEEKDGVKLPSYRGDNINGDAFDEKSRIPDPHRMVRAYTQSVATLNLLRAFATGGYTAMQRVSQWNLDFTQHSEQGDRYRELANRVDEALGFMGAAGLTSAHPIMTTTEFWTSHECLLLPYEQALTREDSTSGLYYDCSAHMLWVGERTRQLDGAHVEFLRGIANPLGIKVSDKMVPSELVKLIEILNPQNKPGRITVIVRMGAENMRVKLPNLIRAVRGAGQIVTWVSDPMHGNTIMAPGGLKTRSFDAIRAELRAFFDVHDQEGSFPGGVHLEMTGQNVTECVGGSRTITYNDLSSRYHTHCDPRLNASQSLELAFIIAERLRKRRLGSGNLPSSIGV
- Method Notes: DHS enzyme assay, recombinant DHS2^A11
- Test Settings: recombinant enzyme; read-out: IC50 of effector molecule on DHS2^A11
Supply the numeric figure in µM, leaving out any unit text.

Past entries and their recorded results:
>>> df
                                   compound  endpoint_value
0  O=C(O)Cc1cc(O)ccc1O [HGA, homogentisate]             242
1  O=C(O)C(=O)Cc1ccc(O)cc1 [HPP, 4-Hydroxyphenylpyruvate]            58.6

Moving on to the next compound.
[Q] Reported IC50, compound O=C(O)C(=O)Cc1c[nH]c2ccccc12 [IPA, indole-3-pyruvate] : ____
[A] 90.6

###

- Tested Target: all DHS^WT isoforms
- Method Notes: DHS enzyme assay, summary over all DHS^WT isoforms
- Test Settings: range over the three isoforms
Outcome Measure: IC50

[Q] Query the reported IC50 for all DHS^WT isoforms; item: O=C(O)Cc1cc(O)ccc1O [HGA, homogentisate]
[A] 75 to 250 µM

###

- Tested Target: DHS2^A4 (Arabidopsis thaliana, UniProt Q00218, G222S)
- Construct: without the predicted plastid transit peptide (amino acid residues; 49-525, 34-507, and 52-527, respectively)
- Sequence (Q00218 34-507 G222S): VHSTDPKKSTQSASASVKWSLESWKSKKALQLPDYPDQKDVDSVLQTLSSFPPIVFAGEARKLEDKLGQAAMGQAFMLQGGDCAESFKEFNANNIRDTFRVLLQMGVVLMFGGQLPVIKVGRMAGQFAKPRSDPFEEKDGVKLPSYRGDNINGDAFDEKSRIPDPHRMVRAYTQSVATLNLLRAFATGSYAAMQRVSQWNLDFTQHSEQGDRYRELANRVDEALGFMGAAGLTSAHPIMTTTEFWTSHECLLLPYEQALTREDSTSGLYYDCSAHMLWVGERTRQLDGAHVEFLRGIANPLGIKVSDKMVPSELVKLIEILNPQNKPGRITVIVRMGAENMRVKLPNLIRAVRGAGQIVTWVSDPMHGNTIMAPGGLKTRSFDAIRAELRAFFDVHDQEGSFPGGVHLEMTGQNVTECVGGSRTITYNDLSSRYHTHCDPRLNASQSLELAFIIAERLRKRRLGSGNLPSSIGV
- Test Settings: recombinant enzyme; read-out: IC50 of effector molecule on DHS2^A4
- Experimental: To generate recombinant DHS proteins the pET28a vectors carrying the A. thaliana DHS1 (AtDHS1), AtDHS2, or AtDHS3 WT sequence without the predicted plastid transit peptide (amino acid residues; 49-525, 34-507, and 52-527, respectively) were expressed in E. coli Rosetta-2 cells and purified using Ni-affinity chromatography, exactly as was conducted previously (9). […]
Outcome Measure: pIC50
Please express pIC50 as -log10 of the molar concentration.

Past entries and their recorded results:
                                   compound  outcome_measure  endpoint_value
0  C=C(O[C@@H]1C=C(C(=O)O)C=C[C@H]1O)C(=O)O [Chorismate]            pIC50            3.99
1  O=C(O)C(=O)Cc1c[nH]c2ccccc12 [IPA, indole-3-pyruvate]            pIC50            4.13
2  O=C(O)Cc1cc(O)ccc1O [HGA, homogentisate]            pIC50            3.67

Moving on to the next compound.
[Q] Query the reported pIC50 for DHS2^A4 (Arabidopsis thaliana, UniProt Q00218, G222S); item: O=C(O)C(=O)Cc1ccc(O)cc1 [HPP, 4-Hydroxyphenylpyruvate]
[A] 3.84

###

- Tested Target: DHS1^WT (Arabidopsis thaliana, UniProt P29976)
- Construct: without the predicted plastid transit peptide (amino acid residues; 49-525, 34-507, and 52-527, respectively); made in house; host or cells: E. coli Rosetta-2
- Sequence (P29976 49-525): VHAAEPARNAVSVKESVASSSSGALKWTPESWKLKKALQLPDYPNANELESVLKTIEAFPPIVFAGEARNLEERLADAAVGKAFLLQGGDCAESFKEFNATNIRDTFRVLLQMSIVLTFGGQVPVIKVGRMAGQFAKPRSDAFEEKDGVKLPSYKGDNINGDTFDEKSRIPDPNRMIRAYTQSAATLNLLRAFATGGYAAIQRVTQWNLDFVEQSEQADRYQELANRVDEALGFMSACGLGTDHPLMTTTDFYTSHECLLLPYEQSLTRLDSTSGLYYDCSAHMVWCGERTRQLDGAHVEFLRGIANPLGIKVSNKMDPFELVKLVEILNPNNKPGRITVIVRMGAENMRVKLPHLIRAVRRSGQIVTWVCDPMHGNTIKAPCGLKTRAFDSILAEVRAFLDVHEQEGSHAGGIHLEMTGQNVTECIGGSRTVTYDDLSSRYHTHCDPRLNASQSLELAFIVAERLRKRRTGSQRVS
- Method Notes: DHS enzyme assay (colorimetric), recombinant DHS1^WT
- Type: biochemical
Outcome Measure: IC50

[Q] Reported IC50, compound O=C(O)CCc1c[nH]c2ccccc12 [Indole-3-propionic acid] : ____
[A] 2.06 mM
